# System: HOP-62 NSCLC
# assay protocol: NCI tumour cell line growth inhibition, 48 h
endpoint name: TGI

// known answers, use as guide
molecule | TGI
COC(=O)c1c(O)ccc(O)c1C(C(C)=O)C(C)=O | > 100 µM
NS(=O)(=O)c1nnc(NS(=O)(=O)c2ccccc2[N+](=O)[O-])s1 | > 100 µM
Cn1c(CCCC(=O)O)nc2cc(N(CCCl)CCCl)ccc21 | > 100 µM
COC(=O)[C@H](Cc1cn(C)cn1)NC(=O)[C@H](CC(=O)OCc1ccccc1)NC(=O)Nc1cc(C(F)(F)F)cc(C(F)(F)F)c1 | 16.9 µM
Cc1ccc(C[As+](c2ccccc2)(c2ccccc2)c2ccccc2)cc1 | 32.9 µM
C[N+](C)(C)CC(=O)N/N=C(\Cc1nc2ccc([N+](=O)[O-])cc2[nH]c1=O)C(=O)Nc1nc2ccc([N+](=O)[O-])cc2s1 | > 100 µM

Query molecule follows.
What does the data say about its TGI? Entry: Cc1ccc(N2C(=O)C3c4[nH]c5ccc(C)cc5c4C4CCC(C(C)(C)C)CC4C3C2=O)cc1 (stereo unspecified) 24.5 µM

====

The entries below are paired with their reported TGI.
# System: KM12 colon
# assay protocol: NCI tumour cell line growth inhibition, 48 h

// known answers, use as guide
molecule | endpoint name | observed value
Nc1nc(SCC(=O)c2ccccc2)c2[nH]cnc2n1 | TGI | > 100 µM
CCN(CC)C1Oc2cc3c(cc2C(c2cc(OC)c(O)c(OC)c2)C1C)OCO3 (centres undefined) | TGI | 22.5 µM
O=C(O)c1ccc2c(c1)C(=O)N(c1ccc(S(=O)(=O)c3ccc(N4C(=O)c5ccc(C(=O)O)cc5C4=O)cc3)cc1)C2=O | TGI | > 100 µM

What does the data say about its TGI? Entry: O=Cc1cn(CCCCCCCCn2cc(C=O)c3ccccc32)c2ccccc12 > 10 µM

====

# System: OVCAR-4 ovarian
# assay protocol: NCI tumour cell line growth inhibition, 48 h
endpoint name: TGI

mol | observed value
c1ccc(C2=NN2c2ccccc2)cc1 | > 100 µM

What does the data say about its TGI? Entry: Cc1ccc(/C=N/NC(=O)c2ccccc2Oc2ccccc2)o1 > 100 µM

What does the data say about its TGI? Entry: CN(C)[C@@H]1C(=O)C(C(=O)NCNc2nc3n[nH]nc3c(=O)[nH]2)=C(O)[C@@]2(O)C(=O)C3=C(O)c4c(O)cccc4[C@@](C)(O)[C@H]3C[C@@H]12 > 58.3 µM

====

# Test system: SK-MEL-28 melanoma
# assay protocol: NCI tumour cell line growth inhibition, 48 h
The entries below are paired with their reported TGI.

compound | TGI
CCOC(=O)c1cc(=O)n(C)c(=O)n1C | > 100 µM

Query compound follows.
Query TGI on SK-MEL-28 melanoma for C/C=C/C(=O)Oc1cccc2cccnc12 61.6 µM

====

# Tested on: A549 NSCLC
# assay protocol: NCI tumour cell line growth inhibition, 48 h
The entries below are paired with their reported GI50.

// known answers, use as guide
compound | endpoint name | observed value
CCCCC(=O)N(c1ccc(Nc2c3ccccc3nc3cc([N+](=O)[O-])ccc23)cc1)S(C)(=O)=O | GI50 | 1.99 µM
CN1CCC2(CC1)N=C(SCC(=O)Nc1cnc3ccccc3c1)C(c1ccc(Br)cc1)=N2 | GI50 | 5.01 µM
O=C(Nc1ccncc1)C(=O)c1cn(S(=O)(=O)c2cccc(Cl)c2)c2ccccc12 | GI50 | 22.4 µM
O=C(/C=C/c1ccccc1)c1cccc2ccccc12 | GI50 | 2.96 µM
NCCCNc1nc2ccccc2c2c(=O)c3cc(F)ccc3sc12 | GI50 | 1.59 µM
COc1ccc2c(c1)C(=Nc1ccc(F)c(Cl)c1)c1c-2c(Nc2ccc(F)c(Cl)c2)nc2ccccc12 | GI50 | > 74 µM
O=C1/C(=C\c2ccc(F)cc2)CN(C(=O)c2ccccc2F)C/C1=C\c1ccc(F)cc1 | GI50 | 2.59 µM
CC1=CC(=O)N(c2cccc3c(N4C(=O)C=C(C)C4=O)cccc23)C1=O | GI50 | 32.5 µM

Query GI50 on A549 NSCLC for C[C@@H](Nc1cc(F)cc(F)c1)c1cc(C(=O)N(C)C)cc2c(=O)cc(N3CCOCC3)oc12 7.43 µM

Query GI50 on A549 NSCLC for Cc1sc(C(=O)c2cncnc2N[C@@H]2C[C@H](COS(N)(=O)=O)[C@@H](O)C2)cc1[C@@H]1NCCc2ccc(Cl)cc21 2.21 µM

Query GI50 on A549 NSCLC for Cc1ccc(N)cc1[As]=[As]c1cc(N)ccc1C (stereo not given) 4.36 µM

Query GI50 on A549 NSCLC for COC(=O)[C@H](Cc1cn(C)cn1)NC(=O)[C@H](CC(=O)OCc1ccccc1)NC(=O)Nc1cc(C(F)(F)F)cc(C(F)(F)F)c1 11.6 µM

Query GI50 on A549 NSCLC for COc1cccc2c1C(=O)c1c(O)c3c(c(O)c1C2=O)C[C@@](O)(C(=O)CO)CC3OC1CC(N)C(OC2CCCCO2)C(C)O1 (stereo not given in full) 0.00469 µM

Query GI50 on A549 NSCLC for CC[C@@H](C)/C=C(C)/C=C/C(=O)c1c(O)c(-c2ccc(OC(=O)[C@@]34CC[C@@](C)(C(=O)O3)C4(C)C)cc2)cn(O)c1=O 4.27 µM

Query GI50 on A549 NSCLC for CC12OC(CC(O)C1O)n1c3ccccc3c3c4c(c5c6ccccc6n2c5c31)C(=O)N(CCN1CCOCC1)C4=O (stereo not given) 0.4 µM

====

# Tested on: TK-10 renal
# assay protocol: NCI tumour cell line growth inhibition, 48 h
endpoint name: TGI

molecule | TGI
Cc1ccc2c(c1)-c1c3c(nn1C)-c1ccccc1SC3O2 (centres undefined) | > 100 µM

What does the data say about its TGI? Entry: CSc1c(C#N)c(=O)n(N)c2c1c(C)nn2-c1ccccc1 > 100 µM

What does the data say about its TGI? Entry: CCOC(=O)C1=C(C)N(c2ccc(Cl)cc2)C2(O)C=CC(=O)C3=C(O)c4ccccc4C(=O)C312 (centres undefined) 8.03 µM

What does the data say about its TGI? Entry: COc1cc(OCc2ccccc2)c2c(CCC(=O)O)cc(=O)oc2c1 (tested in a mixture with another compound) 96.6 µM

What does the data say about its TGI? Entry: O=C1c2ccccc2C(=O)N1CCCOCc1c[nH]c(=O)[nH]c1=O > 100 µM

What does the data say about its TGI? Entry: NC(=O)c1c(NC(=O)c2cccs2)sc2c1CCC(=O)C2 > 100 µM

What does the data say about its TGI? Entry: CN(C)NC(=O)/C(=C/c1ccc(Cl)cc1)NC(=O)c1ccccc1 > 100 µM

What does the data say about its TGI? Entry: C=C(COCO)C(C)=O 26.9 µM

What does the data say about its TGI? Entry: C/C(=N\NC(=O)c1ccncc1)c1sc(-n2nc(-c3ccccc3)cc2-c2ccccc2)nc1C > 31.6 µM

====

# Tested on: RXF 393 renal
# assay protocol: NCI tumour cell line growth inhibition, 48 h
Where a SMILES comes first, the peptide text is derived from it. [ ]: non-standard residue; d: D form. ΔPro = O=C(O)[CH]1C=CCN1
endpoint name: TGI

// known answers, use as guide
molecule | TGI
O=C(OCc1ccccc1)C(Cc1ccc(OCc2ccccc2)cn1)NC(=O)C(F)(F)F (stereo unspecified) | > 100 µM
O=c1[nH]c2c(c(=O)[nH]1)SC(c1ccccc1)C2 (stereo unspecified) | > 100 µM
CC(C)(C)OC(=O)N(O)[C@@H]1CC[C@H](n2cnc3c(N)ncnc32)C1 | > 100 µM
[N-]=[N+]=NC1C(O)C(CO)OC1n1ccc(N)nc1=O (stereo unspecified) | > 602 µM
O=C1Nc2ccc(Br)cc2/C1=N/S(=O)(=O)O | > 100 µM

What does the data say about its TGI? Entry: Clc1cccc(-c2nc3cccc4c3n2Cc2ncccc2-4)c1 > 100 µM

What does the data say about its TGI? Entry: O=C1C=C(c2ccccc2)OC1C1Sc2ccccc2NC1=O (stereo unspecified) > 94.4 µM

What does the data say about its TGI? Entry: C[P+]1(Cc2ccccc2)CCCC1 > 100 µM

What does the data say about its TGI? Entry: N#C/C(=C\c1cc(O)c(O)c(O)c1)C(N)=O > 100 µM

What does the data say about its TGI? Entry: O=C(O)C1C=CCN1C(=O)C1C=CCN1C(=O)C1C=CCN1 (stereo unspecified) (H-[ΔPro]-[ΔPro]-[ΔPro]-OH; configuration not given here) > 100 µM

What does the data say about its TGI? Entry: CN(C)NC(=O)/C(=C/c1ccc(Cl)cc1)NC(=O)c1ccccc1 > 100 µM

What does the data say about its TGI? Entry: CCN(CC)C1Oc2cc3c(cc2C(c2cc(OC)c(O)c(OC)c2)C1C)OCO3 (stereo unspecified) > 31.5 µM

What does the data say about its TGI? Entry: COC(=O)C1(C(=O)OC)N=C(C)OC1c1ccccc1O (stereo unspecified) > 100 µM

What does the data say about its TGI? Entry: CCOP(=O)(C/C=C/Cn1ncc(=O)[nH]c1=O)OCC > 100 µM

What does the data say about its TGI? Entry: C/C(O)=C(\C=N\C(=S)N=Nc1c(O)[nH]c2ccccc12)C(=O)Nc1ccccc1C > 100 µM

What does the data say about its TGI? Entry: Cc1cccc(C)c1NC(=O)CCC(=O)NC(N)=NC#N > 100 µM

What does the data say about its TGI? Entry: O=Cc1ccc2ccocc1-2 > 100 µM

What does the data say about its TGI? Entry: c1ccc(-c2[nH]ncc2-c2ccnc(-c3ccc(OCCN4CCOCC4)cc3)c2)nc1 > 25 µM

What does the data say about its TGI? Entry: CC1(C)Cc2c(sc3[nH]c(=S)[nH]c(=S)c23)CS1 > 100 µM

What does the data say about its TGI? Entry: Cc1ccc(S(=O)(=O)OCOS(=O)(=O)c2ccc(C)cc2)cc1 > 100 µM

What does the data say about its TGI? Entry: CC(Br)CN1CCOCC1 (stereo unspecified) > 100 µM
